Tested on: LPS-induced microglia activation
Protocol Details: Image-based assay of LPS-induced microglia activation (HTS and dose response)
Format: cell-based, rat
Condition Details: Rattus norvegicus, Microglia, 48 h, read-out: LPS % inhibition
Counter-ions that a name gives are not always drawn.
For each record, write down the corresponding inhibition at 10 µM.
Return type: number; implicit unit %.

Request: Which inhibition at 10 µM value belongs to `N[C@@H](CCC(=O)N[C@@H](CS)C(=O)NCC(=O)O)C(=O)O` ?
Result: 13

Request: Return reported inhibition at 10 µM; argument: `O=C(O)c1cccnc1`
Result: 13

Request: I would be grateful if you could share the reported inhibition at 10 µM for CNCC(O)c1ccc(O)c(O)c1 (centres unmarked) [Racepinephrine] .
Result: 29

Request: Returns the measured inhibition at 10 µM for the input compound. Input: `O=C1NS(=O)(=O)c2ccccc21`
Result: 11

Request: Quick one: inhibition at 10 µM of `Cc1cc2c(s1)Nc1ccccc1N=C2N1CCN(C)CC1` ?
Result: 9

Request: // lookup inhibition at 10 µM for `Oc1c(Cl)cc(Cl)c(Cl)c1Cc1c(O)c(Cl)cc(Cl)c1Cl`
Result: 15

Request: Look up inhibition at 10 µM: Cc1cnc(C(=O)NCCc2ccc(S(=O)(=O)NC(=O)NC3CCCCC3)cc2)cn1 [Glipizide]
Result: 18

Request: Dear colleague, I am looking for the recorded inhibition at 10 µM of the following compound: `Nc1nc2ccc(OC(F)(F)F)cc2s1`
Result: 7

Request: Endpoint output: inhibition at 10 µM of CC1CCC(C(C)C)C(O)C1 (centres unmarked) . Value?
Result: 0

Request: Item C[C@@H]1C[C@H]2[C@@H]3C[C@H](F)C4=CC(=O)C=C[C@]4(C)[C@@]3(F)[C@@H](O)C[C@]2(C)[C@@]1(O)C(=O)CO [Flumethasone, reference compound] has what recorded inhibition at 10 µM?
Result: 101

Request: If you can, please state the reported inhibition at 10 µM value of `c1ccc([C@H]2CN3CCSC3=N2)cc1` .
Result: 12

Request: Looking for the measured inhibition at 10 µM of `NCCCC[C@H](N[C@@H](CCc1ccccc1)C(=O)O)C(=O)N1CCC[C@H]1C(=O)O` , can you help?
Result: 3

Request: Look up inhibition at 10 µM for this compound: `CC(C)(CO)[C@@H](O)C(=O)NCCC(=O)NCCSSCCNC(=O)CCNC(=O)[C@H](O)C(C)(C)CO`
Result: 7

Request: inhibition at 10 µM lookup needed for `OCCN1CCN(CCCN2c3ccccc3Sc3ccc(C(F)(F)F)cc32)CC1` , thanks.
Result: 20

Request: So what's the measured inhibition at 10 µM for this one? `N[C@@H](Cc1cc(I)c(Oc2ccc(O)c(I)c2)c(I)c1)C(=O)O`
Result: 21

Request: Quick check: inhibition at 10 µM of `Oc1ccc(Cl)cc1` ?
Result: 15

Request: Please look up its inhibition at 10 µM: `CCCc1cc(=O)[nH]c(=S)[nH]1`
Result: 8

Request: // lookup inhibition at 10 µM for Oc1ccc(O)cc1 [Hydroquinone]
Result: 12

Request: Look up inhibition at 10 µM for this compound: COc1cc(NC(C)CCCN)c2ncccc2c1 (centres unmarked)
Result: 7

Request: I'd like to know its inhibition at 10 µM. The compound in question is `OCCOCCN1CCN(C2=Nc3ccccc3Sc3ccccc32)CC1`
Result: 13

Request: What does the data say about its inhibition at 10 µM? Entry: `O=C(CCBr)N1CCN(C(=O)CCBr)CC1`
Result: 0

Request: Quick one: inhibition at 10 µM of NNc1nncc2ccccc12 [Hydralazine] ?
Result: 22

Request: For the compound shown here, `CCCCCCCCCCCCCCCC(=O)NCCO` , give the reported inhibition at 10 µM.
Result: 7

Request: Quick one: inhibition at 10 µM of Clc1ccc2c(c1)C(N1CCNCC1)=Nc1ccccc1O2 [Amoxapine, reference compound] ?
Result: 43

Request: Can you share its inhibition at 10 µM? I mean this compound: `CC(=O)S[C@@H]1CC2=CC(=O)CC[C@]2(C)[C@H]2CC[C@@]3(C)[C@@H](CC[C@@]34CCC(=O)O4)[C@H]12`
Result: 20

Request: Param item = NC(=O)c1ncn([C@@H]2O[C@H](CO)[C@@H](O)[C@H]2O)n1 [Ribavirin, reference compound] ; retrieve measured inhibition at 10 µM.
Result: 107

Request: Any idea what inhibition at 10 µM was measured for COc1ccc(CC(C)NCC(O)c2ccc(O)c(NC=O)c2)cc1 (centres unmarked) ?
Result: 32

Request: Value lookup for inhibition at 10 µM; key = CNCCCC12CCC(c3ccccc31)c1ccccc12 [Maprotiline hydrochloride, reference compound]
Result: 67

Request: Looking for the measured inhibition at 10 µM of `CN(C)C(=N)N=C(N)N` , can you help?
Result: 0

Request: If you can, please state the reported inhibition at 10 µM value of O=C(O)COCCN1CCN([C@H](c2ccccc2)c2ccc(Cl)cc2)CC1 [Levocetirizine Dihydrochloride] .
Result: -2

Request: What value of measured inhibition at 10 µM is listed for CO[C@H]1C[C@H](O[C@@H]2/C(C)=C/C[C@@H]3C[C@@H](C[C@]4(CC[C@H](C)[C@@H](C5CCCCC5)O4)O3)OC(=O)[C@@H]3C=C(C)/C(=N/O)[C@H]4OC/C(=C\C=C\[C@@H]2C)[C@]43O)O[C@@H](C)[C@@H]1O [Selamectin, reference compound] ?
Result: 42

Request: Given `C[n+]1ccccc1/C=N/O` , state its recorded inhibition at 10 µM.
Result: 17
